- test_target: Kappa-type opioid receptor (Cavia porcellus)
- Sequence (P41144 whole entry): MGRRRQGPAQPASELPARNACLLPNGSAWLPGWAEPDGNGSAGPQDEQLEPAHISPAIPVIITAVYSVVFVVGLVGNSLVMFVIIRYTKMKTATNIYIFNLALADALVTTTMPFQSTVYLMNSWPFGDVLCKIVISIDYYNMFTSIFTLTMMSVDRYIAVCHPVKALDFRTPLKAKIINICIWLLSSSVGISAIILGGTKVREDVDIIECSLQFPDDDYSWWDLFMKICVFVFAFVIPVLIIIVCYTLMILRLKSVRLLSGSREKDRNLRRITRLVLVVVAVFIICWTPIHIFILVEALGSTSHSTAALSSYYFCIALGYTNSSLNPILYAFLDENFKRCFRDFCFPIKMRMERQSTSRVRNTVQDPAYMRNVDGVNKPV
Threshold 8 nM. Ki below it: yes (1). Ki at it or above: no (0).

Here are 4 compounds together with their reported answers.
compound	answer_label
NC(=O)c1cccc(C2C[C@H]3CC[C@H](C2)N3Cc2c(F)cccc2F)c1 (relative stereo; 26a)	no (0)
Oc1cccc(C2C[C@H]3CC[C@H](C2)N3Cc2c(F)cccc2F)c1 (relative stereo; 18b)	no (0)
NC(=O)c1cccc(C2C[C@H]3CC[C@H](C2)N3CC(O)Cc2ccccc2)c1 (stereo in doubt; 31b)	no (0)
NC(=O)c1cccc(C2C[C@H]3CC[C@H](C2)N3CC(=O)C2CCCCC2)c1 (relative stereo; 30b)	no (0)

## Input Hello, is Ki of the following compound strictly smaller than 8 nM? O=C1c2ccccc2C(=O)N1CCCCN1[C@@H]2CC[C@@H]1CC(c1cccc(O)c1)C2 (relative stereo; 21a)
## Output yes (1)

## Input In plain terms, does CCCCCCCN1[C@@H]2CC[C@@H]1CC(c1cccc(C(N)=O)c1)C2 (relative stereo) come in under 8 nM for Ki?
## Output yes (1)

## Input Take the compound C[N+]1(CC2CC2)CC[C@]23c4c5ccc(O)c4O[C@H]2C(=O)CC[C@@]3(O)[C@H]1C5 (stereo partly specified) [METHYLNALTREXONE] and say whether its Ki is less than 8 nM.
## Output no (0)

## Input For this compound, is Ki lower than 8 nM? NC(=O)c1cccc(C2C[C@H]3CC[C@H](C2)N3CCCOc2ccccc2)c1 (stereo partly specified)
## Output no (0)

## Input Please indicate whether the reported Ki of Oc1cccc(C2C[C@H]3CC[C@H](C2)N3Cc2c(F)cccc2F)c1 (relative stereo; 18a) is strictly below 8 nM.
## Output yes (1)
